test system: 201T; assay: relative viability (nuclei count vs DMSO), 5 days (fraction); higher = more cells survive; settings: first compound 0.005 µM
measurement kind: relative viability

The examples below pair each entry with its known result.
molecule | measurement kind | test value
CC1(C)CCC(c2ccc(Cl)cc2)=C(CN2CCN(c3ccc(C(=O)NS(=O)(=O)c4ccc(N[C@H](CCN5CCOCC5)CSc5ccccc5)c(S(=O)(=O)C(F)(F)F)c4)cc3)CC2)C1 [Navitoclax] + O=C(CCCCCCC(=O)Nc1ccccc1)NO [Vorinostat] (partner 1 µM) | relative viability | 1.05
CC1(C)CCC(c2ccc(Cl)cc2)=C(CN2CCN(c3ccc(C(=O)NS(=O)(=O)c4ccc(N[C@H](CCN5CCOCC5)CSc5ccccc5)c(S(=O)(=O)C(F)(F)F)c4)cc3)CC2)C1 [Navitoclax] + O=C(c1cc(Cc2n[nH]c(=O)c3ccccc23)ccc1F)N1CCN(C(=O)C2CC2)CC1 [Olaparib] (partner 8 µM) | relative viability | 0.829

Turning now to a further molecule:
Give reported relative viability value for CC1(C)CCC(c2ccc(Cl)cc2)=C(CN2CCN(c3ccc(C(=O)NS(=O)(=O)c4ccc(N[C@H](CCN5CCOCC5)CSc5ccccc5)c(S(=O)(=O)C(F)(F)F)c4)cc3)CC2)C1 [Navitoclax] + Cc1nc(NC(=O)N2CCC[C@H]2C(N)=O)sc1-c1ccnc(C(C)(C)C(F)(F)F)c1 [Alpelisib] (partner 2 µM) 1.03
